# assay: Stability of marker solutions stored frozen at -10 to -20°C, followed by retention time at column calibration
# Type: physicochemical
# Parameters: unit not given here
# experimentalParameters: stored at -10° to -20°C; date of calibration 09-Jul-97, interval 48 days
readoutKind: RT
Answer using only a numeral; do not append any unit.

Endpoint output: RT of TV-86: 86-mer sequence-defined polypeptide molecular weight marker of Ala, Glu, Tyr, Lys, molecular weight = 9220 daltons (peptide) AKKYAKKEKAYAKKAEKAAKKAEAKAYKAAEAKKKAKAEAKKYAKAAKAEKKEYAAAEAKYKAEAAKKAYKAEAAKAAAKEAAYEA . Value? 25.017
